FYI, the data here is from patent US20240409645A1.

Molecular target: T1, human IL-2Rα (human, UniProt P01589 22-240, limits assumed)
T1 construct: recombinant protein; also called hu IL-2R; human IL-2Ra
T1 sequence: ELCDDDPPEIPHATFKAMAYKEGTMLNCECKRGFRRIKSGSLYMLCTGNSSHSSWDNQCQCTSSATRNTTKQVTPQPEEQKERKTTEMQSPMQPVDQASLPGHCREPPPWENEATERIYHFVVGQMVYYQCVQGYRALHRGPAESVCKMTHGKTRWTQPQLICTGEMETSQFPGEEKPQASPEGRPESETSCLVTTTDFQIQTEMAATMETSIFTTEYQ
Test: SPR, P.E. on immobilised antigen
quantity: koff (s⁻¹)
Answers are plain numbers, in s⁻¹.

The following binders each have a reported value; give each one's koff.
1. FJ1427_P035MP01D03 (VHH, periplasmic extract; also called clone nr; 20) VHH: EVQLVESGGGLVQPGGSLRLSCATSGFTFRNNFMSWVRQAPGEGLEWVSTISYGGESTTYAESVKGRFTISRDNAKNTLYLQMNNLKPEDTAVYYCAKATSYDSIRSGSRGQGTQVTVSS
2. FJ1427_P035MP01D11 (VHH, periplasmic extract; also called clone nr; 84) VHH: QLQLVESGGGLVQAGDSLRLSCAASGRSFRNYIMAWYRQAPGKEREFLAAISWLDGTLYADSVEDRFTISRDNPKNTVHLQMDSLKPEDTAVYYCAADRGPVRPVLAPDVDYWGQGTQVTVSS
3. 3-MP01E03 (VHH, periplasmic extract; also called FJ1427_P035MP01E03) VHH: QVQLVESGGGLVQAGGSLRLSCTASGRTLSSYSMAWFRQAADKGREFVTAISSSGVVTHVLDSVKGRFTISRDNAKNTVYLQMNSLQPEDTALYFCAGTASSYSTYEANYNYWGQGTLVTVSS
4. FJ1427_P035MP05H05 (VHH, periplasmic extract; also called clone nr) VHH: QVQLVESGGGLVQAGDSLRLSCAASGFNFGWHAMGWFRQAPGKEREFVATITWTGRDTYYADSVRGRFTISKDNAKNTLFLQMSSLRPDDTGVYYCAKARERATWAYSEDDCDYWGQGTQVTVSS

0.00189
0.0027
0.000799
0.000591
